Reference for the values: PubChem BioAssay (NCI)

Test system: U251 CNS
Outcomes: active, inactive

{"columns": ["Compound", "Measured target", "Class assignment"],
 "data": [
  ["Cc1ccc2c(c1)C(=O)C(c1c(-c3[nH]c(=O)c4ccc(C)cc4c3O)c(O)c3ccccc3c1O)=NC2=O", "U251 CNS", "inactive"],
  ["COc1ccc(C(=O)N2N=C(c3ccc(Br)cc3)CC2c2cn(-c3ccccc3)nc2-c2ccccc2)cc1 (stereo not drawn)", "U251 CNS", "inactive"],
  ["CCn1cc(C2NC(=O)c3ccccc3N2)c2cccc(C)c21 (stereo not drawn)", "U251 CNS", "inactive"],
  ["c1ccc(-c2n(Cc3ccc4ccccc4n3)cc[n+]2Cc2ccc3ccccc3n2)cc1", "U251 CNS", "inactive"],
  ["C=C1C(=O)O[C@H]2[C@H]1CC/C(COC(=O)NCc1ccc(Cn3c(=O)sn(CCCC)c3=O)cc1)=C\\CC[C@@]1(C)O[C@@H]21", "U251 CNS", "inactive"],
  ["CN1CCN(CCOc2ccc(-c3cnc4c(-c5cccc(F)c5F)cnn4c3)cc2)CC1", "U251 CNS", "inactive"],
  ["CC[C@H](C)[C@H](NC(=O)C12CC(NC)(C1)C2)C(=O)N(C)[C@H](C[C@@H](OC(C)=O)c1nc(C(=O)N[C@@H](Cc2ccccc2)C[C@H](C)C(=O)OC)cs1)C(C)C", "U251 CNS", "inactive"],
  ["O=C1/C(=C/c2ccc(Cl)cc2Cl)CN(S(=O)(=O)c2ccccc2)C/C1=C\\c1ccc(Cl)cc1Cl", "U251 CNS", "active"],
  ["COc1cc2c(c(OC)c1OC)-c1ccc(SC)c(=O)cc1C(CC(=O)Oc1ccc(F)cc1)C2 (stereo not drawn)", "U251 CNS", "active"],
  ["COc1ccc2c3c([nH]c2c1)C(=O)c1nc(C)ccc1C3=O", "U251 CNS", "inactive"],
  ["CC(C)c1ccc(COCc2cc(CN3CCCC3)c(O)c3ncccc23)cc1", "U251 CNS", "inactive"],
  ["Cc1cc2nc(CS)[nH]c2cc1C", "U251 CNS", "inactive"],
  ["CC(=O)Oc1cn(-c2ccc(Cl)cc2)nc1C1=NN(C(C)=O)C(c2ccc(F)cc2F)O1 (stereo not drawn)", "U251 CNS", "inactive"]
]}

* * *

System: DU-145 prostate
Assay: NCI tumour cell line growth inhibition, 48 h; in the data active = GI50 below about 0.43 µM; inactive = the rest
Outcomes: active, inactive

{"columns": ["Compound", "Class assignment"],
 "data": [
  ["CC[C@H](C)[C@H](NC(=O)C12CC(NC)(C1)C2)C(=O)N(C)[C@H](C[C@@H](OC(C)=O)c1nc(C(=O)N[C@@H](Cc2ccccc2)C[C@H](C)C(=O)OC)cs1)C(C)C", "active"],
  ["COc1cc(/C=C\\c2cc(/C=C\\c3ccc(O)c(OC)c3)n(C(=O)COc3ccc(Cl)cc3Cl)n2)ccc1O", "inactive"],
  ["Oc1cc2ccccc2cc1-c1n[nH]c(=S)n1CCc1ccccc1", "inactive"],
  ["CCn1cc(C2NC(=O)c3ccccc3N2)c2cccc(C)c21 (centres undefined)", "inactive"],
  ["COc1ccccc1NC(=O)c1ccc(NC2=C(Cl)C(=O)N(Cc3ccccc3)C2=O)cc1", "inactive"],
  ["C=C1CC[C@@H]2C(C)(C)[C@H](O)CC[C@@]2(C)[C@@H]1COc1ccc2ccc(=O)oc2c1", "inactive"],
  ["N#Cc1cc2c(cc1Cl)SC(=Nc1ccccc1)N(S(=O)(=O)c1ccc(Cl)cc1)S2(=O)=O", "inactive"],
  ["CCOC(=O)c1cnc2c(C)cc(C)cc2c1NCCCN(C)C", "inactive"],
  ["COc1ccc2c(c1)C(=Nc1ccc(F)c(F)c1F)c1c-2c(Nc2ccc(F)c(F)c2F)nc2ccccc12", "inactive"]
]}

* * *

Test system: MDA-MB-435
Experiment: NCI tumour cell line growth inhibition, 48 h
Where a SMILES comes first, the peptide text is derived from it. [ ]: non-standard residue; d: D form. The star is where a group is joined. Chg = N[CH](C(=O)O)C1CCCCC1; Cbz = O=C(OCc1ccccc1)*; OBn = c1ccc(CO*)cc1
Each entry below carries its recorded TGI.

{"columns": ["Compound", "TGI"],
 "data": [
  ["COc1ccc(N2C(=O)C3c4[nH]c5cccc(Cl)c5c4C4CCC(C(C)(C)C)CC4C3C2=O)cc1 (configuration not stated)", "> 100 µM"],
  ["COC(=O)C12C3C4C1C1C2C3C41C(=O)NC(C)(C)CC(=O)O (configuration not stated)", "> 100 µM"],
  ["Cc1ccc(SC2=C(N(C)C)C(=O)c3ccccc3C2=O)cc1", "1.22 µM"],
  ["Cc1cc(Cl)ccc1Nc1nc(C(F)(F)F)ccc1C(=O)N/N=C/c1cccc(O)c1", "13.7 µM"],
  ["CC(C)N(C(=O)C12C3(C(=O)OC(C)(C)C)C4C5(C#N)C3C1(C(=O)OC(C)(C)C)C5C42C(=O)OC(C)(C)C)C(C)C (configuration not stated)", "> 100 µM"],
  ["N=c1c2c(=S)n(-c3ccccc3)c(=S)n(-c3ccccc3)c2nc(SCCCN2CCCCC2)n1-c1ccccc1", "3.14 µM"],
  ["N#Cc1cc2c(cc1Cl)SC(=Nc1ccccc1)N(S(=O)(=O)c1ccc(Cl)cc1)S2(=O)=O", "27.8 µM"],
  ["Cc1cc(Cc2c(C)c(C)c(Cc3cc(C)cc(C(C)(C)C)c3O)c(C)c2C)c(O)c(C(C)(C)C)c1", "> 100 µM"],
  ["COc1ccc(OC)c(N(CCN2C(=O)c3ccccc3C2=O)C(=O)CCl)c1", "66.7 µM"],
  ["COc1cc(Cl)cc(-c2nn(-c3cccc(NC(=O)c4cccc(C(F)(F)F)c4)c3)cc2-c2ccncc2)c1", "> 100 µM"],
  ["COc1cc(/C=C\\c2cc(/C=C\\c3ccc(O)c(OC)c3)n(C(=O)COc3ccc(Cl)cc3Cl)n2)ccc1O", "14.7 µM"],
  ["CCOC(=O)N1CCC2(CC1)CC(=O)N(Nc1ccccc1)C2=O", "> 100 µM"],
  ["COc1ccc(CN(Cc2ccc(OC)cc2)C(=O)CC2(O)CCc3ccccc3C2)cc1 (configuration not stated)", "> 100 µM"],
  ["COC(=O)C(NC(=O)C(CC(=O)OCc1ccccc1)NC(=O)OCc1ccccc1)C1CCCCC1 (configuration not stated) (Cbz-Asp(OBn)-[Chg]-OMe; configuration not given here)", "> 100 µM"],
  ["CCOC(=O)N1CCC2C(=C(C)C(C)C3=C2C(=O)c2ccccc2C3=O)C1 (configuration not stated)", "4.53 µM"],
  ["CCOC(=O)C(=Cc1ccc(-c2ccccc2)cc1)C(=O)OCC", "7.57 µM"],
  ["Cc1ccc(Cl)cc1Nc1nc(C(F)(F)F)ccc1C(N)=O", "60.4 µM"],
  ["COc1ccc(NC(=O)CSc2nnc(-c3ccc(N=Cc4ccc(Cl)cc4)cc3)o2)cc1", "> 100 µM"],
  ["CC(=O)O[C@@H]1C(C2CCCCC2)C=[N+]([O-])O[C@@H]1OC1CCCC1(c1ccccc1)c1ccccc1 (some centres not stated)", "9.04 µM"],
  ["Cc1cc2nc3[nH]c4c(Cl)cc(Cl)cc4c3nc2cc1C", "> 100 µM"],
  ["CN(N=O)C(=O)NNC(=O)N(C)N=O", "> 100 µM"],
  ["OC[C@H]1C[C@@H]2Cc3ccccc3N2N1", "> 100 µM"],
  ["COCC1OC(OC2OCC3OC4(OCC(O)(C(C)OC)C5OCOC54)OC3C2OC)C(OC)C(O)C1OC1OC(C)C(OC)C(OC2OC(C)C3OC4(CC(O)C(OC5CC(OC6CC(C)([N+](=O)[O-])C(OC)C(C)O6)C(OC(=O)c6c(C)c(Cl)c(O)c(Cl)c6OC)C(C)O5)C(C)O4)OC3(C)C2O)C1O (configuration not stated)", "> 100 µM"],
  ["C[n+]1c2ccccc2c2/c(=C\\C#N)c3ccccc3n21", "28.1 µM"],
  ["Cc1ncc(CSc2ccccc2N)c(CO)c1O", "> 100 µM"],
  ["O=C1/C(=C/c2ccc(Cl)cc2Cl)CN(S(=O)(=O)c2ccccc2)C/C1=C\\c1ccc(Cl)cc1Cl", "2.89 µM"],
  ["COc1ccc2cnc(N)c(C#Cc3cc(C(=O)Nc4ccc(CN5CCN(C)CC5)c(C(F)(F)F)c4)cnc3C)c2c1", "6.99 µM"],
  ["C[C@@H]1OC(=O)C[C@H]2CC(=O)N(CCC3CN(C(=O)c4ccccc4)c4ccccc43)C[C@@H]21 (some centres not stated)", "> 100 µM"],
  ["COc1ccc(NC(C)=O)cc1N1C(=O)/C(=C\\c2cccc(Oc3ccccc3)c2)S(=O)(=O)C1c1ccccc1 (configuration not stated)", "> 100 µM"],
  ["Cn1ccnc1C(=O)/C=C/c1ccc(C(=O)Nc2ccc(F)cc2)cc1", "11 µM"],
  ["S=C(NCCc1ccccn1)c1nc[nH]c1C(=S)NCCc1ccccn1", "> 100 µM"],
  ["CCCCCOc1ccc(Nc2c(O)c3c(c(O)c2Cl)C(=O)C=CC3=O)cc1", "5.53 µM"],
  ["COC(=O)CCC1(C)C2CCC1/C(=N/O)C2 (configuration not stated)", "> 100 µM"],
  ["COc1ccc2c(c1)C(=Nc1ccc(F)c(F)c1F)c1c-2c(Nc2ccc(F)c(F)c2F)nc2ccccc12", "> 100 µM"],
  ["COc1cccc(C2CC(=O)c3cc(N4CCCC4)ccc3N2)c1 (configuration not stated)", "1.49 µM"],
  ["CC(=O)Oc1cn(-c2ccc(Cl)cc2)nc1C1=NN(C(C)=O)C(c2ccc(F)cc2F)O1 (configuration not stated)", "89.5 µM"],
  ["CCOc1cc2ncc(C#N)c(Nc3ccc(F)c(Cl)c3)c2cc1NC(=O)CC1CCSS1 (configuration not stated)", "1.23 µM"]
]}
